Ref: patent US20230295313A1

biological target: biotin-labeled human IL1RAP (human) (UniProt Q9NPH3); experiment: competition ELISA; competitor: capture mAb016 coated; biotin-hIL1RAP
Sequence (Q9NPH3 21-367 limits assumed): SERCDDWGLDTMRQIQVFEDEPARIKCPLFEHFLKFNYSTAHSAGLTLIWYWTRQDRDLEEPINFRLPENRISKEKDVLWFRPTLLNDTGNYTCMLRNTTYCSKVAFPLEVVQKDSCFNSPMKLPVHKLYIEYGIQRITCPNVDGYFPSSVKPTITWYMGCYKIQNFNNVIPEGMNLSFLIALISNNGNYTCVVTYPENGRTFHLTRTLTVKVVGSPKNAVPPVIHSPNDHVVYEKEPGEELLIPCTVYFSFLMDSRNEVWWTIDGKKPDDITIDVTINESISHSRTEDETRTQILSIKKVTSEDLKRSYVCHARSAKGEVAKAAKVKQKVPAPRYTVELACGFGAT
I'd be grateful if you could share measured % inhibition for these entries.
Give bare numbers, in %.

Consider the reported % inhibition for these binders:
[
  {
    "binder": "murine mAb016 (antibody, V domains shown) VH: QVQLQQPGAELVRPGSSVKLSCKASGYTFTSYWMDWVKQRPGQGLEWIGNIYPSDSATHYNQKFKDKATLTIDKSSSTAYMQLSSLTSEDSAVYYCARDYYGSIGMDSWGQGTSVTVSS VL: DIQMTQSPSSLSASLGERVSLTCRASQEISDYLSWLQQKPDGTIKRLIYAASTLDSGVPKRFSGSRSGSDYSLTISSLESEDFADYYCLQYASFPWTFGGGTKLEIK",
    "measurement type": "% inhibition",
    "recorded measurement": 94
  },
  {
    "binder": "mAb063 (antibody, V domains shown) VH: EVQLQQSGPELVKPGASVKISCKASGYTFTDYYMNWVKQSHGKSLEWIGHINPNSGSTTYTEKFKDKATLTVDKSSSTAYMELRSLTSDDSAVYYCVRRIGKNWHCDVWGTGTTVTVSS VL: DIVLTQSPASLAVSLGQRATISCRASESVNFHGTHLMHWYQQKPGQAPKLLIYAASNLDSGVPARFSGSGSETDFTLNIHPVEEEDAATYFCQQSIEDPFTFGSGTYLEIK",
    "measurement type": "% inhibition",
    "recorded measurement": 97
  }
]

Could you now consider this next binder?
Return reported % inhibition; argument: murine mAb048 (antibody, V domains shown) VH: QVQLQQPGADLVKPGASVKLSCKAYGYTFFSYWMHWVRQRPGQGLEWIGMIHPNSGTTNNNEKFKSKATLTVDKSFSTAYMQLSSLTSEDSAVYYCARGYSNYDFDYWGQGTILTVSS VL: DIKMTQFPSSMYASLGERVTITCKASQDINTYLIWIQQKPGKSPKTLIYRANRLADGVPSRFSGSGSGQDSSLTISSLEHEDMGIYYCLQYDEFPYTFGGGTKLEIK 98
